# Experiment: Antagonist activity at PAR4 in mouse washed platelets assessed as inhibition of gamma-PAR4 agonist peptide (AYPGKF-NH2)-induced platelet aggregation preincubated for 5 mins followed by peptide addition and measured after 5 mins by aggregometer
Endpoint Label: pIC50
Reminder that pIC50 is minus the log10 of a molar concentration.

Value of pIC50 reported for the molecule `COc1cc(Cl)c2nc(-c3cc(C)cc4c(=O)n(C)cnc34)sc2c1` is 7.08

----------
# Experiment: Half-life in po dosed male Sprague-Dawley rat measured after 24 hrs by LC-MS/MS analysis
# Assay type: ADME, organism-based
# Assay Context: in vivo
Endpoint Label: half-life (h)
Expressed in h, but write only the number.

So for `COc1cc(Cl)c2nc(-c3cc(C)cc4c(=O)n(C)cnc34)sc2c1` , the logged half-life turned out to be 2.16

----------
# Experiment: AUC (0 to last) in iv dosed male Sprague-Dawley rat measured after 24 hrs by LC-MS/MS analysis
# Format: ADME, organism-based
# Assay Context: in vivo
Endpoint Label: AUC(0-t) at 24 h (ng·h/mL)
Field format: number, assumed ng·h/mL, no unit text.

So for `COc1cc(Cl)c2nc(-c3cc(C)cc4c(=O)n(C)cnc34)sc2c1` , the logged AUC(0-t) at 24 h turned out to be 288

----------
Measured inhibition accompanies every entry in the list below.
# Target System: Proteinase-activated receptor 4 (Homo sapiens) (UniProt Q96RI0)
# Experiment: Antagonist activity at PAR4 in human platelet rich plasma assessed as inhibition of gamma-PAR4 agonist peptide (AYPGKF-NH2)-induced platelet aggregation at 200 nM preincubated for 5 mins followed by peptide addition and measured after 5 mins by aggregometer relative to control
# Type: cell-based
# Assay Context: time 10.0 min
Report as a plain number; the unit % is understood.

Example cases with answers are listed next.
>>> observed_value("COCc1ncc2c(-c3nc4cc(F)c(OCCOC(=O)OC)cc4s3)cc(C)cc2n1")
35.3
>>> observed_value("COc1ncc2c(-c3nc4cc(F)c5c(c4s3)C[C@H](COC(=O)Nc3ccc(C(=O)N4CCOCC4)cc3)O5)cc(C)cc2n1")
38.1
>>> observed_value("COc1ncc2cc(C)cc(-c3nc4ccccc4s3)c2n1")
29.7
>>> observed_value("COc1ccc(NC(=O)OC[C@H]2Cc3c(c(F)cc4nc(-c5cc(C)cc6nc(OC)ncc56)sc34)O2)cn1")
32.9
>>> observed_value("COC(=O)OC[C@H]1Cc2c(c(F)cc3nc(-c4cc(C)cc5nc(OC)ncc45)sc23)O1")
34.9

inhibition for `COc1cc(Cl)c2nc(-c3cc(C)cc4cnc(N5CCCCC5)nc34)sc2c1` is 39.5

The compound listed as `CCOc1ncc2c(-c3nc4c(F)cc(OC)cc4s3)cc(C)cc2n1` has a reported inhibition of 39.1

So, `COc1ncc2cc(C)cc(-c3nc4c(Cl)cc(Cl)cc4s3)c2n1` ? Its inhibition was 34.7

response.value for `COc1ncc2c(-c3nc4cc(F)c5c(c4s3)C[C@H](COC(=O)Nc3cnc(C)nc3)O5)cc(C)cc2n1` (field: inhibition) = 27.5

----------
# Experiment: Half-life in male Sprague-Dawley rat at 2 mg/kg, po measured after 24 hrs by LC-MS/MS analysis
# Type: ADME, organism-based
# Assay Context: in vivo
Endpoint Label: half-life (h)
Provide the reading as a plain figure in h.

The reported value for `COCc1ncc2c(-c3nc4cc(F)c(OCCOC(=O)Nc5cc(F)cc(C#N)c5)cc4s3)cc(C)cc2n1` in terms of half-life is 1.78

Sure, the documented half-life for `COc1ncc2c(-c3nc4cc(F)c5c(c4s3)C[C@H](COC(=O)Nc3cccc(C#N)c3)O5)cc(C)cc2n1` is 5.16

Entry `COc1ncc2c(-c3nc4cc(F)c5c(c4s3)C[C@H](COC(=O)Nc3cc(F)cc(C#N)c3)O5)cc(C)cc2n1` , half-life reported as 7.05

----------
# Target System: Proteinase-activated receptor 4 (Homo sapiens)
# Experiment: Antagonist activity at PAR4 in human platelet rich plasma assessed as inhibition of gamma-PAR4 agonist peptide (AYPGKF-NH2)-induced platelet aggregation at 200 nM preincubated for 5 mins followed by peptide addition and measured after 5 mins by aggregometer relative to control
# Format: cell-based
# Assay Context: filed as antagonist, time 10.0 min
Endpoint Label: inhibition (%)
Reply numerically in %, unit not repeated.

Please review the following examples before continuing.
>>> observed_value("COc1ncc2c(-c3nc4cc(F)c5c(c4s3)C[C@@H](COC(=O)N3CCOCC3)O5)cc(C)cc2n1")
47.6
>>> observed_value("COc1ncc2c(-c3nc4cc(F)c5c(c4s3)C[C@@H](COC(=O)Nc3cc(F)cc(C#N)c3)O5)cc(C)cc2n1")
65.8
>>> observed_value("COc1ccc2nc(-c3cc(C)cc4nc(SC)ncc34)sc2c1")
62.3

For record `COc1ncc2c(-c3nc4cc(F)c5c(c4s3)C[C@H](COC(=O)N3CCOCC3)O5)cc(C)cc2n1` the listed inhibition is 64.7

For record `COc1ccc2nc(-c3cc(C)cc4cnc(OC)nc34)sc2c1` the listed inhibition is 79.8

Sample `COCc1ncc2c(-c3nc4cc(F)c(OCCOC(=O)Nc5cccc(C#N)c5)cc4s3)cc(C)cc2n1` ; inhibition observed: 77.1

Summary for this compound, `COc1cc(C)c2nc(-c3cc(C)cc4nc(OC)ncc34)sc2c1` : inhibition is 70.2

inhibition recorded for this compound, `COc1cc(OC)c2nc(-c3cc(C)cc4nc(OC)ncc34)sc2c1` , is 47.8

Per the records, this compound ( `CCOc1ncc2c(-c3nc4cc(F)c(OC)cc4s3)cc(C)cc2n1` ) has inhibition equal to 40.4

----------
# Experiment: AUC (0 to last) in male Sprague-Dawley rat at 2 mg/kg, po measured after 24 hrs by LC-MS/MS analysis
# Assay type: ADME, organism-based
# Assay Context: in vivo
Endpoint Label: AUC(0-t) at 24 h (ng·h/mL)
Give the value, in units of ng·h/mL, as a plain number.

So for `COc1ncc2c(-c3nc4cc(F)c5c(c4s3)C[C@H](COC(=O)Nc3cc(F)cc(C#N)c3)O5)cc(C)cc2n1` , the logged AUC(0-t) at 24 h turned out to be 865

Reported AUC(0-t) at 24 h ( `COc1ncc2c(-c3nc4cc(F)c5c(c4s3)C[C@H](COC(=O)Nc3cccc(C#N)c3)O5)cc(C)cc2n1` ) = 1220

The compound `COCc1ncc2c(-c3nc4cc(F)c(OCCOC(=O)Nc5cc(F)cc(C#N)c5)cc4s3)cc(C)cc2n1` showed AUC(0-t) at 24 h equal to 488

----------
# Experiment: Metabolic stability in human liver microsomes assessed as half-life at 1 uM measured upto 120 mins in presence of NADPH by LC-MS/MS analysis
# Type: ADME, Microsome
Documented half-life at 1 µM across a set of compounds
Answer with a number only, understood to be in h.

Before answering, review these 3 worked examples.
>>> observed_value("COCc1ncc2c(-c3nc4cc(F)c(OCCOC(=O)Nc5cc(F)cc(C#N)c5)cc4s3)cc(C)cc2n1")
0.747
>>> observed_value("COc1cc(Cl)c2nc(-c3cc(C)cc4c(=O)n(C)cnc34)sc2c1")
0.71
>>> observed_value("COc1ncc2c(-c3nc4cc(F)c5c(c4s3)C[C@H](COC(=O)Nc3cccc(C#N)c3)O5)cc(C)cc2n1")
4.16

Short answer for `COc1ncc2c(-c3nc4cc(F)c5c(c4s3)C[C@H](COC(=O)Nc3cc(F)cc(C#N)c3)O5)cc(C)cc2n1` : half-life at 1 µM was 4.71

----------
# Experiment: Protein binding in rat plasma at 10 uM incubated for 6 hrs by LC-MS/MS analysis
# Type: ADME, cell-free
# Assay Context: read-out: PPB (converted)
Quick list: fraction unbound at 6 h, 10 µM per entry.
Response field accepts a number only; no unit should be typed.

Examples with answers:
>>> observed_value("COCc1ncc2c(-c3nc4cc(F)c(OCCOC(=O)Nc5cc(F)cc(C#N)c5)cc4s3)cc(C)cc2n1")
0.0011
>>> observed_value("COc1ncc2c(-c3nc4cc(F)c5c(c4s3)C[C@H](COC(=O)Nc3cc(F)cc(C#N)c3)O5)cc(C)cc2n1")
0.0001

Okay, now this compound:
The reported value for `COc1ncc2c(-c3nc4cc(F)c5c(c4s3)C[C@H](COC(=O)Nc3cccc(C#N)c3)O5)cc(C)cc2n1` in terms of fraction unbound at 6 h, 10 µM is 0.0002

----------
# Target System: Proteinase-activated receptor 4 (Homo sapiens)
# Sequence (whole entry): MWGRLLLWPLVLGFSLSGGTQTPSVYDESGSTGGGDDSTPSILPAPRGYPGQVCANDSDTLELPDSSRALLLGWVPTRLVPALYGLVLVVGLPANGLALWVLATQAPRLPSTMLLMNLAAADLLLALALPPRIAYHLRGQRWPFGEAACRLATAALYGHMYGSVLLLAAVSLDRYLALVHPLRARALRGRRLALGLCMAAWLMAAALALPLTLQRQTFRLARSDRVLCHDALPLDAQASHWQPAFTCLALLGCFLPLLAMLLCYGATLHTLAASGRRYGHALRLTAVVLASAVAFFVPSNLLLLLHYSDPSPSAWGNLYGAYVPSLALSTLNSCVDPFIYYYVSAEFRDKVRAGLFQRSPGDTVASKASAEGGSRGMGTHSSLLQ
# Experiment: Antagonist activity at PAR4 in human platelet rich plasma assessed as inhibition of gamma-PAR4 agonist peptide (AYPGKF-NH2)-induced platelet aggregation at 200 nM preincubated for 5 mins followed by peptide addition and measured after 5 mins by aggregometer relative to control
# Assay type: cell-based
# Assay Context: filed as antagonist, time 10.0 min
Endpoint Label: inhibition (%)
Express it in %; write the number only.

>>> observed_value("COc1ccc2nc(-c3cc(C)cc4nc(OC)ncc34)sc2c1")
77.4
>>> observed_value("COc1ccc(NC(=O)OC[C@H]2Cc3c(c(F)cc4nc(-c5cc(C)cc6nc(OC)ncc56)sc34)O2)cc1")
70.5
>>> observed_value("COc1cc(Cl)c2nc(-c3cc(C)cc4cnc(N(C)C)nc34)sc2c1")
47.6
>>> observed_value("COCOc1ncc2c(-c3nc4cc(F)c(OC)cc4s3)cc(C)cc2n1")
86.5
>>> observed_value("COc1ccc(NC(=O)OC[C@H]2Cc3c(c(F)cc4nc(-c5cc(C)cc6nc(OC)ncc56)sc34)O2)c(C)c1")
55.3

Item: `COc1ncc2cc(C)cc(-c3nc4cc(F)c(OC)cc4s3)c2n1` | inhibition: 90.2

Consider `COc1ncc2c(-c3nc4ccccc4s3)cc(C)cc2n1` . Its measured inhibition is 49.6
